The values you see were collected from patent US20240316047A1.

Target: Human recombinant DHX9 protein (Homo sapiens (Human), UniProt Q08211)
Sequence (Q08211 whole entry): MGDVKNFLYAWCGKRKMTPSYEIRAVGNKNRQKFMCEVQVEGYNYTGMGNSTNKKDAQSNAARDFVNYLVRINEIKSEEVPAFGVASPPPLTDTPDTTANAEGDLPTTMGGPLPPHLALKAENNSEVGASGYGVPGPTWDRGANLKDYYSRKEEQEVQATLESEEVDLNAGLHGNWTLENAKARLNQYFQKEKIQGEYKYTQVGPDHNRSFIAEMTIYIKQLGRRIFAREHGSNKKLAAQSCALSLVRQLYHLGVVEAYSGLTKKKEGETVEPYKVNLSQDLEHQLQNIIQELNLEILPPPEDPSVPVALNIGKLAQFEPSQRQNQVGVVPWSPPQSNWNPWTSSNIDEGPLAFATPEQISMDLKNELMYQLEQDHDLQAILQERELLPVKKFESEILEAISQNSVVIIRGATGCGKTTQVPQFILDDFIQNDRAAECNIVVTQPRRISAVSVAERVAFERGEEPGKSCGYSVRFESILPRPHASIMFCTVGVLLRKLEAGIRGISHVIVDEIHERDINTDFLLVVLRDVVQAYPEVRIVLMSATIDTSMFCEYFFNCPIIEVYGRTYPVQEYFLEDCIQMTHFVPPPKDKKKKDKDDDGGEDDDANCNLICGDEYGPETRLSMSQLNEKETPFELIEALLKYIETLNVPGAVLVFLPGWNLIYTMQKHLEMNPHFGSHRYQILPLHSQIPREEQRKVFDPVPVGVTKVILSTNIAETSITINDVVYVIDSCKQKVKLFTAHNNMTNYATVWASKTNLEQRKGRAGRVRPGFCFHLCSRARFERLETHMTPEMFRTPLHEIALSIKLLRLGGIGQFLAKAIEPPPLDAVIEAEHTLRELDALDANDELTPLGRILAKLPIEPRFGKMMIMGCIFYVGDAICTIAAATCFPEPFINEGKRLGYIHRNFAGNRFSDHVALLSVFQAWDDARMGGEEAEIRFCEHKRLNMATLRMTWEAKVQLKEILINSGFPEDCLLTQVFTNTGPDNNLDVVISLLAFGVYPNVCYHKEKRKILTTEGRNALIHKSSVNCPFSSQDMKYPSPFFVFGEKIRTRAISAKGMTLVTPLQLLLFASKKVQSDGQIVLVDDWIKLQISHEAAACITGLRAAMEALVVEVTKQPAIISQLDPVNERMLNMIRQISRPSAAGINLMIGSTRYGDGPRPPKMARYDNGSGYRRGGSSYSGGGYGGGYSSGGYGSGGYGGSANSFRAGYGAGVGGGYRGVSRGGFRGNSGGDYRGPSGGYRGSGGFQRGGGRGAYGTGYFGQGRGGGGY
Assay: DHX9 ATPase assay (ADP-Glo)
Conditions: read-out: DHX9 Biochemical Inflection Point
Listing: pIC50 of selected molecules
// pIC50 is dimensionless: -log10 of concentration (M)

structure smiles: CS(=O)(=O)Nc1cc(Cl)cc(NC(=O)c2cnn(-c3ccc(N4CCCC4=O)cn3)c2)c1
reported result: 7.62
//
structure smiles: CCS(=O)(=O)Nc1cc(Cl)cc(NC(=O)c2cc(-c3cccnc3)cs2)c1
reported result: 7.40
//
structure smiles: CS(=O)(=O)Nc1cc(Br)cc(NC(=O)c2cnn(-c3cccc(C#N)c3)c2)c1
reported result: 6.70
//
structure smiles: CN1CC(Oc2cnc(-c3cc(C(=O)Nc4cc(Cl)cc(NS(C)(=O)=O)c4)cn3CC(F)F)nc2)C1
reported result: 7.90

Query molecule follows.
Prompt: Could you share which pIC50 value was measured for Cc1sc(C(=O)Nc2cc(Cl)cc(NS(C)(=O)=O)c2)cc1-c1ncc(C2CCN(CC(F)(F)F)CC2)cc1F ?
Completion: 7.23

---

Collected DHX9 Biochemical Max Inhibition values appear next to each entry.
Molecular target: Human recombinant DHX9 protein (Homo sapiens (Human))
Experiment: DHX9 ATPase assay (ADP-Glo)
Type: biochemical

structure smiles: CS(=O)(=O)Nc1cc(Cl)cc(NC(=O)c2cc(CN)n(-c3ccccn3)c2)c1
result type: DHX9 Biochemical Max Inhibition
reported result: 57.4%

structure smiles: CC(C)(C)OC(=O)N1CC2(CC(n3cc(C(=O)Nc4cc(Cl)cc(NS(C)(=O)=O)c4)cn3)C2)C1
result type: DHX9 Biochemical Max Inhibition
reported result: 65.1%

Prompt: Recorded DHX9 Biochemical Max Inhibition for CS(=O)(=O)Nc1cc(Cl)cc(NC(=O)c2cc3ccccn3c2)c1 , please?
Completion: 64%

---

Molecular target: Human recombinant DHX9 protein (Homo sapiens (Human), UniProt Q08211)
Experiment: DHX9 ATPase assay (ADP-Glo)
Format: biochemical
Dear colleague, classification is by DHX9 Biochemical Max Inhibition, with ranges listed here: Low = under 60%, Mid = from 60% up to 70%, High = 70% and over

Observe how each entry below is paired with its result.
compound: CC(C)C(=O)N1CCN(c2ccc(-n3cc(C(=O)Nc4cc(Cl)cc(NS(C)(=O)=O)c4)cn3)nc2)CC1 [Example 149]
qualitative label: Mid

compound: Cc1cccnc1-c1csc(C(=O)Nc2cc(F)cc(NS(C)(=O)=O)c2)c1 [Example 334]
qualitative label: High

compound: CS(=O)(=O)Nc1cc(Cl)cc(NC(=O)c2cc3cc(F)ccc3s2)c1 [Example 295]
qualitative label: Mid

compound: CC(=O)N1CCN(c2cnc(-n3cc(C(=O)Nc4cc(Br)cc(NS(C)(=O)=O)c4)cn3)c(C)c2)CC1 [Example 87]
qualitative label: Low

compound: CS(=O)(=O)Nc1cc(Cl)cc(NC(=O)c2cnn([C@H]3CCC[C@H](O)C3)c2)c1 (single isomer, unassigned) [Example 152a]
qualitative label: Mid

Prompt: Consider Cn1cc(C(=O)Nc2cc(Cl)cc(NS(C)(=O)=O)c2)cc1-c1ncc(F)cc1OCc1cnco1 [Example 268] . To which DHX9 Biochemical Max Inhibition class does it belong?
Completion: High

Prompt: Which category does the recorded DHX9 Biochemical Max Inhibition put CS(=O)(=O)Nc1cc(Cl)cc(NC(=O)c2cnn(-c3c(F)cccc3OCc3cccc(F)c3)c2)c1 [Example 211] in?
Completion: Mid

Prompt: # classify by DHX9 Biochemical Max Inhibition band: Cc1sc(C(=O)Nc2cc(Br)cc(NS(C)(=N)=O)c2)cc1-c1ccccn1 (stereo not drawn) [Example 123]
Completion: High

Prompt: Determine which band this compound sits in: Cc1cc(C(=O)Nc2cc(Cl)cc(NS(C)(=O)=O)c2)cn1-c1ncccc1O [Example 281]
Completion: High

Prompt: # bin label for CS(=O)(=O)Nc1cc(Br)cc(NC(=O)c2ccc3c(c2)[nH]c(=O)n3Cc2ccccc2)c1 [Example 99]
Completion: Low

Prompt: // bin(item) where item = Cc1cc(F)cnc1-c1cc(C(=O)Nc2cc(Cl)cc(NS(C)(=O)=O)c2)sc1C [Example 348]
Completion: High

Prompt: Lab note: sort CS(=O)(=O)Nc1cc(Cl)cc(NC(=O)c2cnn([C@H]3CC[C@H]3O)c2)c1 (single isomer, unassigned) [Example 306b] into the matching DHX9 Biochemical Max Inhibition band.
Completion: High

Prompt: Dear colleague, I would appreciate it if you could identify the bin for CN(C)C(=O)Cc1cccnc1-c1csc(C(=O)Nc2cc(Cl)cc(NS(C)(=O)=O)c2)c1 [Example 221] and reply at your convenience.
Completion: High
